Listed next: entries and their corresponding kon.
target: natural Fel d1 (cat (Felis domesticus)) (UniProt P30438); test: SPR, mAb captured, nFel d1 injected, 25 C

{"columns": ["binder", "kon / M⁻¹ s⁻¹"],
 "data": [
  ["H2M1236N (antibody, mouse IgG2, V domains shown) VH: QVQLQESGPGLVKPSETLSLTCTVSGGSISNYYWSWIRQPPGKGLEWIGYIYYSGRTNYNPSLKSRVTISVDTSKNQFSLKLRSVTAADTAVYYCARHRITRTADSFDYWGQGTLVTVSS VL: DIQMTQSPSSLSASVGDRVTITCQASQDITNYLNWYQQKPGKAPKLLIYDASNLETGVPSRFSGSGSGTDFTFTISSLQPEDVATFYCHQYGDLPYTFGQGTKLEIK", 312000],
  ["H2M1237N (antibody, mouse IgG2, V domains shown) VH: QVVLVESGGGVVQPGRSLRLSCAASGFTFSSYGMHWVRQAPGKGLEWVAVIWYDGSIKYYADSVKGRFTISRDNSNNTIYLQMNSLRAEDTAVYYCARALIPVAGTDPIFGYWGQGTLVTVSS VL: DIQMTQSPSTLSASVGDRVTITCRASQSVSSWLAWYQQKPGKAPKLLIFKTSGLESGVPFRFSGSGSGTEFTLTISSLQPDDFATYYCQQYNTYSPTFGQGTKVEIK", 281000],
  ["H1M1230N (antibody, V domains shown) VH: EVQLVESGGGLVQPGGSLRLSCTASGFIFSNFWMTWVRQAPGKGLEWVANIKQDGSETYCVDSVKGRFTISRDHAKNSLFLQMNSLRAEDTAVYYCARGAGTIYYYGMDVWGQGTTVIVSS VL: DIQMTQSPSSVSASVGDRLTITCRASQDISSWLTWYQQKPGKAPNLLIYAASGLQSGVPSRFSGSGSGTDFTLTISNLQPEDFATYYCQQANSFPLTFGQGTRLEIK", 258000]
]}
